test: inhibitors of mitochondrial cytochrome c release, biochemical, purified mitochondria (AID 1603); settings: stronger effect = lower value;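 also: mouse liver mitochondria challenged with calcium chloride; signal normalized to the plate average as 100%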
measured.endpoint: cytochrome c release ratio
// return a plain number; no unit text

Problem: Give recorded cytochrome c release ratio. O=C1C(CCS(=O)c2ccccc2)C(=O)N(c2ccccc2)N1c1ccccc1 (centres undefined)
Result: 0.57

Problem: Give recorded cytochrome c release ratio. `CCCSc1ccc2nc(NC(=O)OC)[nH]c2c1`
Result: 0.88

Problem: Give recorded cytochrome c release ratio. `O=c1[nH]cnc2[nH]ncc12`
Result: 0.77

Problem: Give recorded cytochrome c release ratio. `c1ccc2[nH]c(-c3cscn3)nc2c1`
Result: 1.13

Problem: Give recorded cytochrome c release ratio. `c1ccc([C@H]2CN3CCSC3=N2)cc1`
Result: 0.88

Problem: Give recorded cytochrome c release ratio. `COC(=O)Nc1nc2ccc(C(=O)c3ccccc3)cc2[nH]1`
Result: 0.9

Problem: Give recorded cytochrome c release ratio. CC1COc2c(N3CCN(C)CC3)c(F)cc3c(=O)c(C(=O)O)cn1c23 (centres undefined)
Result: 1.57

Problem: Give recorded cytochrome c release ratio. `NC(N)=NC(=O)c1nc(Cl)c(N)nc1N`
Result: 1.1

Problem: Give recorded cytochrome c release ratio. `NS(=O)(=O)c1cc2c(cc1Cl)NCNS2(=O)=O`
Result: 1.08

Problem: Give recorded cytochrome c release ratio. `CN(C)C(=O)Oc1ccc[n+](C)c1`
Result: 0.97

Problem: Give recorded cytochrome c release ratio. `Nc1nc2c(ncn2COCCO)c(=O)[nH]1`
Result: 1.05

Problem: Give recorded cytochrome c release ratio. `CCOC(=O)N1CCC(=C2c3ccc(Cl)cc3CCc3cccnc32)CC1`
Result: 4.23

Problem: Give recorded cytochrome c release ratio. `Cc1ccc(-c2cc(C(F)(F)F)nn2-c2ccc(S(N)(=O)=O)cc2)cc1`
Result: 4.42

Problem: Give recorded cytochrome c release ratio. `C[C@@H]1O[C@@H](OC[C@H]2O[C@@H](Oc3c(-c4ccc(O)c(O)c4)oc4cc(O)cc(O)c4c3=O)[C@H](O)[C@@H](O)[C@@H]2O)[C@H](O)[C@H](O)[C@H]1O`
Result: 1.08

Problem: Give recorded cytochrome c release ratio. CN(C)CCOC(C)(c1ccccc1)c1ccccn1 (centres undefined)
Result: 0.7

Problem: Give recorded cytochrome c release ratio. `O=C1N=C(O)CN1/N=C/c1ccc(-c2ccc([N+](=O)[O-])cc2)o1`
Result: 0.66

Problem: Give recorded cytochrome c release ratio. `CCCc1cc(=O)[nH]c(=S)[nH]1`
Result: 1.02

Problem: Give recorded cytochrome c release ratio. `CCCN1C[C@H](CSC)C[C@@H]2c3cccc4[nH]cc(c34)C[C@H]21`
Result: 1.44

Problem: Give recorded cytochrome c release ratio. `COc1ccc2c(c1)c(CC(=O)O)c(C)n2C(=O)c1ccc(Cl)cc1`
Result: 0.82

Problem: Give recorded cytochrome c release ratio. `Cc1noc(NS(=O)(=O)c2ccc(N)cc2)c1C`
Result: 0.89

Problem: Give recorded cytochrome c release ratio. `NS(=O)(=O)c1cc2c(cc1C(F)(F)F)NCNS2(=O)=O`
Result: 0.95

Problem: Give recorded cytochrome c release ratio. `CCN(CC)CCOC(=O)c1ccc(N)cc1`
Result: 1.16

Problem: Give recorded cytochrome c release ratio. `CC(=O)OCC[N+](C)(C)C`
Result: 1.31

Problem: Give recorded cytochrome c release ratio. `O=c1[nH]cc(F)c(=O)[nH]1`
Result: 0.98
